molecular target: FGFR2 (Homo sapiens (Human), UniProt P21802); experiment: Kinase assay, binding constants (Kd), kinase-tagged T7 phage, qPCR
Sequence (P21802 22-821): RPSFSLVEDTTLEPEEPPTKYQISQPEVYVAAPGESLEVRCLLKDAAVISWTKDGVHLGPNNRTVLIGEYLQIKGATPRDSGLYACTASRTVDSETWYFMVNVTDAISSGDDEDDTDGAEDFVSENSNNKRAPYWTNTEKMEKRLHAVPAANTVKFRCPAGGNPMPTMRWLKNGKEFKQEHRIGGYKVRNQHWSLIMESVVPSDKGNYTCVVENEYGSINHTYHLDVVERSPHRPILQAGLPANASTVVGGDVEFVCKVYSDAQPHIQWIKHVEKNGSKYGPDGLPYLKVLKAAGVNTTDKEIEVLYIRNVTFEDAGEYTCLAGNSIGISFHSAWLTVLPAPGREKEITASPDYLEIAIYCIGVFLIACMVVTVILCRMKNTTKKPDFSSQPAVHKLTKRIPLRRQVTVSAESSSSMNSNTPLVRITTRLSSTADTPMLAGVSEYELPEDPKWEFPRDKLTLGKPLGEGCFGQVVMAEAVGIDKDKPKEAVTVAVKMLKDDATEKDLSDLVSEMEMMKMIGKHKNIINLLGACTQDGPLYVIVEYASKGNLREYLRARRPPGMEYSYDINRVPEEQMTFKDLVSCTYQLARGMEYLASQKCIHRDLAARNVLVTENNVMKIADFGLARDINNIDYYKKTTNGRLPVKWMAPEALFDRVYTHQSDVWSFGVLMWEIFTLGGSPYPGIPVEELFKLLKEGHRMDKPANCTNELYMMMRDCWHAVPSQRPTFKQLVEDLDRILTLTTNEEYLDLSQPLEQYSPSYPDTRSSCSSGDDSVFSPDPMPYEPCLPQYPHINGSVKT
Kd values by entry

{"chemical.smiles": "COc1cc(-c2n[nH]c3ccc(O[C@H](C)c4c(C)cnnc4C)cc23)cnc1N1CCC1", "Kd": "> 300 nM"}
{"chemical.smiles": "Cc1cc(-c2n[nH]c3ccc(O[C@H](C)c4c(Cl)cnc(C)c4Cl)cc23)cnc1N1CC2(C1)CN(S(C)(=O)=O)C2", "Kd": "100 to 300 nM"}
{"chemical.smiles": "C[C@@H](Oc1ccc2[nH]nc(-c3cnc(N4CCN(C(=O)N(C)C)CC4)nc3)c2c1)c1c(Cl)cncc1Cl", "Kd": "100 to 300 nM"}
{"chemical.smiles": "C[C@@H](Oc1ccc2[nH]nc(-c3ccc(N4CCC5(CCC(=O)N5)CC4)nc3)c2c1)c1c(Cl)cncc1Cl", "Kd": "1 to 20 nM"}
{"chemical.smiles": "C[C@@H](Oc1ccc2[nH]nc(-c3cnc(N4CC5(C4)CN(S(C)(=O)=O)C5)nc3)c2c1)c1c(Cl)cncc1Cl", "Kd": "20 to 100 nM"}

The recorded Kd for Cc1cnnc(C)c1[C@@H](C)Oc1ccc2[nH]nc(-c3cnc(N4CC[C@H](C(C)(C)O)C4)c(C#N)c3)c2c1 is 100 to 300 nM

The recorded Kd for C[C@@H](Oc1ccc2[nH]nc(-c3ccc(N4CC5(COC5)C4)nc3)c2c1)c1c(Cl)cnc(F)c1Cl is 1 to 20 nM

The recorded Kd for COC(=O)N1CC2(C1)CN(c1ccc(-c3n[nH]c4ccc(O[C@H](C)c5c(C)cnnc5C)cc34)cn1)C2 is 1 to 20 nM

---

molecular target: FGFR4 (Homo sapiens (Human)); test: Kinase assay, binding constants (Kd), kinase-tagged T7 phage, qPCR
Sequence (P22455 22-802): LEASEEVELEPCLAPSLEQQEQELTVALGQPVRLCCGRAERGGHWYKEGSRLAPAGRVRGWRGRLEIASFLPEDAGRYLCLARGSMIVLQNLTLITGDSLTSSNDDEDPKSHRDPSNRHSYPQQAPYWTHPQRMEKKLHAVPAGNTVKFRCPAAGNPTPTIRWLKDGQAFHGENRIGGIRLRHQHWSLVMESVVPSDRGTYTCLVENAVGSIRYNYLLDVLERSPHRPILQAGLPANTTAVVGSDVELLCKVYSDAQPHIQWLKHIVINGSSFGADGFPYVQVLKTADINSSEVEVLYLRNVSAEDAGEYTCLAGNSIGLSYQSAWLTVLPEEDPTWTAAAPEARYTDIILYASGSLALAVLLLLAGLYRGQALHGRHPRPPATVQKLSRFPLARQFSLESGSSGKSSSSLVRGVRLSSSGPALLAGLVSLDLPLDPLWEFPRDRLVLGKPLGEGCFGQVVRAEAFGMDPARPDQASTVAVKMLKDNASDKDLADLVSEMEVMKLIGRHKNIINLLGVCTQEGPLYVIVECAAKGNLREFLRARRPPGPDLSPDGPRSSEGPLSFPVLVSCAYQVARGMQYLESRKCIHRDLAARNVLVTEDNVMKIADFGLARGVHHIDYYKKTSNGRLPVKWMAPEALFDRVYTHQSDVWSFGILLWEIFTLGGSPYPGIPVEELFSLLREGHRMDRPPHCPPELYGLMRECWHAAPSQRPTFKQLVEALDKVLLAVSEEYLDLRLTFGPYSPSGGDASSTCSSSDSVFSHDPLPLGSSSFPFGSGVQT
Kd values by entry

Example molecules with recorded Kd:
{"molecule": "COC(=O)N1CCC2(CC1)CN(c1ccc(-c3n[nH]c4ccc(O[C@H](C)c5c(Cl)cncc5Cl)cc34)cn1)C2 [Example 125]", "tgt": "FGFR4 (Homo sapiens (Human))", "result": "1 to 20 nM"}
{"molecule": "Cc1ncc(Cl)c([C@@H](C)Oc2ccc3[nH]nc(-c4cnn(C5CCN(C(C)C)CC5)c4)c3c2)c1Cl [Example 93]", "tgt": "FGFR4 (Homo sapiens (Human))", "result": "20 to 100 nM"}
{"molecule": "COc1cc2[nH]nc(-c3cnc(N4CC5(C4)CN(S(C)(=O)=O)C5)nc3)c2cc1O[C@H](C)c1c(Cl)cncc1Cl [Example 239]", "tgt": "FGFR4 (Homo sapiens (Human))", "result": "1 to 20 nM"}

Summary line: CCN1CC[C@H](n2cc(-c3n[nH]c4ccc(O[C@H](C)c5c(Cl)cncc5Cl)cc34)cn2)C1 [Example 89] , FGFR4 (Homo sapiens (Human)), reported Kd = 20 to 100 nM
